System: E. coli 1346
Test: Antibacterial activity of the products per se, serial dilution method in liquid medium (Test E)
Type: cell-based
Conditions: Table 4; test E, product per se
Counter-ions that a name gives are not always drawn.
Listing of entries alongside the reported MIC E. coli 1346 (E).

Here are 3 compounds together with their reported answers.
1. CC(=O)NCC1=C(C(=O)O)N2C(=O)[C@@H]3[C@H]2[C@H](C1)CN3C(=O)Nc1ccc(O)cc1 [Example 85, sodium salt] = > 32 µg/mL
2. O=C(O)C1=C(CSc2nc[nH]n2)C[C@@H]2CN(C(=O)C(F)(F)F)[C@@H]3C(=O)N1[C@H]23 [76(b), sodium salt] = ≤ 0.25 µg/mL
3. O=C(O)C1=C(Sc2ccncc2)C[C@@H]2CN[C@@H]3C(=O)N1[C@H]23 = > 32 µg/mL

Bench note: what MIC E. coli 1346 (E) did CC(=O)N1C[C@H]2CC(COC(N)=O)=C(C(=O)O)N3C(=O)[C@@H]1[C@@H]23 [58(a), sodium salt] show? > 32 µg/mL

Bench note: what MIC E. coli 1346 (E) did O=C(O)C1=C(CSc2ccncc2)O[C@@H]2CN[C@@H]3C(=O)N1[C@@H]32 show? > 16 µg/mL

Bench note: what MIC E. coli 1346 (E) did Cn1nnnc1SCC1=C(C(=O)O)N2C(=O)[C@@H]3[C@H]2[C@@H](CN3C(=O)Nc2ccc(O)cc2)S1 [41(d), sodium salt] show? > 32 µg/mL
